Values were extracted from paper PMC9739780.

Let's look at some molecules and their measured half-life.
Experiment: Pharmacokinetics after oral administration of LJF extract in normal rats
Type: in vivo, Sprague-Dawley rats
Details: male, Sprague-Dawley, rat; normal group (N), oral LJF ethanol extract 15.75 g/kg, plasma, mean ± SD, n = 6; read-out: t1/2 (converted)
outcome_measure: half-life (h)

>>> print(df.to_string())
                                   molecule  outcome_measure  readout_number
0  O=C(/C=C/c1ccc(O)c(O)c1)O[C@H]1C[C@](O)(C(=O)O)C[C@@H](O)[C@H]1O [3-CQA, 3-caffeoylquinic acid]        half-life            12.9
1  O=C(/C=C/c1ccc(O)c(O)c1)O[C@@H]1[C@H](O)C[C@@](O)(C(=O)O)C[C@@H]1O (stereo in doubt) [4-CQA, 4-caffeoylquinic acid]        half-life            15.2
2  O=C(O)c1ccc(O)c(O)c1 [PA, protocatechuic acid]        half-life            24.8
3  O=C(/C=C/c1ccc(O)c(O)c1)O[C@@H]1C[C@](O)(C(=O)O)C[C@@H](O)[C@H]1O [5-CQA, 5-caffeoylquinic acid]        half-life            17.9

====

// values below are reported AUC(0-inf)
Test: Pharmacokinetics after oral administration of LJF extract in CCl4-induced liver injury model rats
Type: in vivo, Sprague-Dawley rats
Details: male, Sprague-Dawley, rat, in vivo, po, 15.75 g/kg
outcome_measure: AUC(0-inf) (ng·h/mL)

>>> df
                                   compound  outcome_measure  readout_number
0  C=C[C@H]1[C@H](O[C@@H]2O[C@H](CO)[C@@H](O)[C@H](O)[C@H]2O)OC=C(C(=O)OC)[C@H]1CC(=O)O       AUC(0-inf)           17100
1  C=C[C@H]1[C@H](O[C@@H]2O[C@H](CO)[C@@H](O)[C@H](O)[C@H]2O)OC=C2C(=O)OCC[C@H]21 [Sweroside]       AUC(0-inf)           16700

====

Test: Pharmacokinetics after oral administration of LJF extract in CCl4-induced liver injury model rats
Assay type: in vivo, Sprague-Dawley rats
Conditions: male, Sprague-Dawley, rat; liver injury model group (M, CCl4), oral LJF ethanol extract 15.75 g/kg, plasma, mean ± SD, n = 6; read-out: AUC0–t
AUC(0-t) reference
outcome_measure: AUC(0-t) (ng·h/mL)

                                   molecule  unit_string  readout_number
0  O=C(/C=C/c1ccc(O)c(O)c1)O[C@@H]1C[C@](O)(C(=O)O)C[C@@H](O)[C@H]1O      ng·h/mL            3570
1  O=C(/C=C/c1ccc(O)c(O)c1)O[C@H]1C[C@](O)(C(=O)O)C[C@@H](O)[C@H]1O      ng·h/mL           16400
2  O=C(/C=C/c1ccc(O)c(O)c1)O[C@@H]1[C@H](O)C[C@@](O)(C(=O)O)C[C@@H]1O (stereo in doubt)      ng·h/mL            5970
3                      O=C(O)c1ccc(O)c(O)c1      ng·h/mL             219

====

Experiment: Pharmacokinetics after oral administration of LJF extract in normal rats
Type: in vivo, Sprague-Dawley rats
Details: male, Sprague-Dawley, rat; normal group (N), oral LJF ethanol extract 15.75 g/kg, plasma, mean ± SD, n = 6; read-out: Cmax
outcome_measure: Cmax

>>> df
                                   compound      result
0  O=C(/C=C/c1ccc(O)c(O)c1)O[C@@H]1[C@H](O)C[C@@](O)(C(=O)O)C[C@@H]1O (stereo in doubt)  1110 ng/mL
1  O=C(/C=C/c1ccc(O)c(O)c1)O[C@H]1C[C@](O)(C(=O)O)C[C@@H](O)[C@H]1O  5110 ng/mL
2  O=C(/C=C/c1ccc(O)c(O)c1)O[C@@H]1C[C@](O)(C(=O)O)C[C@@H](O)[C@H]1O   266 ng/mL
3                      O=C(O)c1ccc(O)c(O)c1  22.6 ng/mL

====

Assay: Pharmacokinetics after oral administration of LJF extract in normal rats
Assay type: in vivo, Sprague-Dawley rats
Conditions: male, Sprague-Dawley, rat; normal group (N), oral LJF ethanol extract 15.75 g/kg, plasma, mean ± SD, n = 6; read-out: Tmax
Entries and their Tmax
outcome_measure: Tmax (min)

In [3]: df
Out[3]:
                                   compound  unit_string  readout_number
0  O=C(/C=C/c1ccc(O)c(O)c1)O[C@H]1C[C@](O)(C(=O)O)C[C@@H](O)[C@H]1O [3-CQA, 3-caffeoylquinic acid]          min            12.5
1  O=C(O)c1ccc(O)c(O)c1 [PA, protocatechuic acid]          min            19.8
2  O=C(/C=C/c1ccc(O)c(O)c1)O[C@@H]1[C@H](O)C[C@@](O)(C(=O)O)C[C@@H]1O (stereo in doubt) [4-CQA, 4-caffeoylquinic acid]          min            12.5

====

Assay: Pharmacokinetics after oral administration of LJF extract in CCl4-induced liver injury model rats
Type: in vivo, Sprague-Dawley rats
Conditions: male, Sprague-Dawley, rat; liver injury model group (M, CCl4), oral LJF ethanol extract 15.75 g/kg, plasma, mean ± SD, n = 6; read-out: AUC0–∞
outcome_measure: AUC(0-inf) (ng·h/mL)

In [3]: df
Out[3]:
                                   molecule  readout_number
0  O=C(/C=C/c1ccc(O)c(O)c1)O[C@@H]1C[C@](O)(C(=O)O)C[C@@H](O)[C@H]1O            3970
1  O=C(/C=C/c1ccc(O)c(O)c1)O[C@H]1C[C@](O)(C(=O)O)C[C@@H](O)[C@H]1O           17400
2  O=C(/C=C/c1ccc(O)c(O)c1)O[C@@H]1[C@H](O)C[C@@](O)(C(=O)O)C[C@@H]1O (stereo in doubt)            6810
3                      O=C(O)c1ccc(O)c(O)c1             547

====

Each entry below carries its reported AUC(0-inf).
Experiment: Pharmacokinetics after oral administration of LJF extract in normal rats
Type: in vivo, Sprague-Dawley rats
Conditions: male, Sprague-Dawley, rat; normal group (N), oral LJF ethanol extract 15.75 g/kg, plasma, mean ± SD, n = 6; read-out: AUC0–∞
outcome_measure: AUC(0-inf) (ng·h/mL)

In [3]: df
Out[3]:
                                   compound  unit_string  readout_number
0  O=C(/C=C/c1ccc(O)c(O)c1)O[C@H]1C[C@](O)(C(=O)O)C[C@@H](O)[C@H]1O      ng·h/mL           13100
1  O=C(/C=C/c1ccc(O)c(O)c1)O[C@@H]1[C@H](O)C[C@@](O)(C(=O)O)C[C@@H]1O (stereo in doubt)      ng·h/mL            2340
2                      O=C(O)c1ccc(O)c(O)c1      ng·h/mL             292

====

Assay: Pharmacokinetics after oral administration of LJF extract in CCl4-induced liver injury model rats
Type: in vivo, Sprague-Dawley rats
Details: male, Sprague-Dawley, rat; liver injury model group (M, CCl4), oral LJF ethanol extract 15.75 g/kg, plasma, mean ± SD, n = 6; read-out: MRT0–∞
Experimental: Intraperitoneal injection of CCl4 was used to induce liver injury in rats, and the successful establishment of the model was measured by detecting ALT and AST in rat plasma. This method has been successfully applied to study the pharmacokinetics of LJF orally in normal rats and acute liver injury rats. The pharmacokinetic parameters were analyzed using the […] model analysis on the DAS 2.0 platform. […]
Below: a set of entries, each annotated with reported MRT inf.
outcome_measure: MRT inf (h)

                                   molecule  readout_number
0  O=C(/C=C/c1ccc(O)c(O)c1)O[C@H]1C[C@](O)(C(=O)O)C[C@@H](O)[C@H]1O            23.3
1  O=C(/C=C/c1ccc(O)c(O)c1)O[C@@H]1[C@H](O)C[C@@](O)(C(=O)O)C[C@@H]1O (stereo in doubt)            29.7
2  O=C(/C=C/c1ccc(O)c(O)c1)O[C@@H]1C[C@](O)(C(=O)O)C[C@@H](O)[C@H]1O            20.9
3                      O=C(O)c1ccc(O)c(O)c1            49.8
